Target: SARS-CoV-2 Mac1 (Severe acute respiratory syndrome coronavirus 2, UniProt P0DTD1)
Assay: biochemical
Settings: read-out: %inhibition
Where a name gives a salt, the structure may show the parent alone.
Kindly supply the reported inhibition at 100 µM values for the records listed here.
Just the number please, in %, no unit attached.

Look up inhibition at 100 µM for this compound: COc1cc2nc(N3CCN(C(=O)c4ccco4)CC3)nc(N)c2cc1OC [Prazosin HCl]
17.1

Recorded inhibition at 100 µM of "CC(C)(C#N)c1cc(Cn2cncn2)cc(C(C)(C)C#N)c1" , please.
10.3

Which inhibition at 100 µM value is on record for "Nc1nc(N)nc(NC2CC2)n1" ?
20.5

Please report the recorded inhibition at 100 µM for Nc1cccc2c1CN(C1CCC(=O)NC1=O)C2=O (stereo not drawn) [Lenalidomide (CC-5013)] .
40.3

Look at this compound and give its reported inhibition at 100 µM. CC(COc1ccccc1Cc1ccccc1)N1CCCCC1 (stereo not drawn) [Benproperine phosphate]
0

# lookup: inhibition at 100 µM of "Cc1cc(O)cc(C)c1Cl"
0

Can you share its inhibition at 100 µM? I mean this compound: CCCCCCOC(=O)NC(=N)c1ccc(NCc2nc3cc(C(=O)N(CCC(=O)OCC)c4ccccn4)ccc3n2C)cc1 [Dabigatran Etexilate]
0

Please look up its inhibition at 100 µM: Nc1ccc(C(=O)NCC(=O)O)cc1 [Sodium 4-aminohippurate Hydrate]
0

Please report the recorded inhibition at 100 µM for NC[C@H](CC(=O)O)c1ccc(Cl)cc1 [(R)-baclofen] .
0

Values from paper doi:10.1101/2021.10.07.463234v2
